Test system: SK-MEL-2 melanoma
Experiment: NCI tumour cell line growth inhibition, 48 h
Metric name: TGI (µM)
Give just the numeric value; µM need not be written.

Example entries and their recorded answers appear below.
>  <Compound>
O=C(NN1C(=O)CSC12CCC(c1ccccc1)CC2)c1[nH]c2ccc(F)cc2c1-c1ccccc1 (centres undefined)

>  <TGI / µM>
33.2

$$$$
>  <Compound>
O=C1/C(=C/c2ccc(Cl)cc2)Sc2scc(-c3cccc([N+](=O)[O-])c3)[n+]21

>  <TGI / µM>
29.1

$$$$
>  <Compound>
O=C1Nc2ccc(Br)cc2/C1=C/C(=O)c1ccccc1

>  <TGI / µM>
32.3

$$$$

Kindly review the next compound as well.
Quick one: give measured TGI for Cc1ccc(-c2c3c(N)c4c(nc3nc3c2c(C)nn3-c2ccccc2)CCC4)cc1
42.6
